- System under test: C07E3.6 (C07E3.6) (Caenorhabditis elegans)
- Sequence: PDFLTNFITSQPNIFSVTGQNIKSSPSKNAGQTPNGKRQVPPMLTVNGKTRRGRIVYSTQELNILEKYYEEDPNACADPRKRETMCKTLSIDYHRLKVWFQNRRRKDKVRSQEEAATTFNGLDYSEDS
Metric name: binding signal (PBM E-score (-0.5 to 0.5))
Field format: numeric only.

The measured binding signal (PBM E-score (-0.5 to 0.5)) associated with ACTAATTA (double strand) [8-mer ACTAATTA] reads 0.498

The measured binding signal (PBM E-score (-0.5 to 0.5)) associated with CAATTAAC (double strand) [8-mer CAATTAAC] reads 0.495

The measured binding signal (PBM E-score (-0.5 to 0.5)) associated with CTAATTAA (double strand) [8-mer CTAATTAA] reads 0.498

The measured binding signal (PBM E-score (-0.5 to 0.5)) associated with ATTAATTA (double strand) [8-mer ATTAATTA] reads 0.495

The measured binding signal (PBM E-score (-0.5 to 0.5)) associated with GGTAATTA (double strand) [8-mer GGTAATTA] reads 0.497

The measured binding signal (PBM E-score (-0.5 to 0.5)) associated with CTTAATTA (double strand) [8-mer CTTAATTA] reads 0.497
